FYI, the data here is from patent US20090012144A1.

Experiment: log P determination by HPLC (reversed-phase C 18), EEC Directive 79/831 Annex V.A8
Format: physicochemical
Settings: reversed-phase C18 HPLC column, pH 2.3, pH not given; read-out: log p/m.p.: log P
recordedEndpoint: chromatographic logP

>>> observedvalue("O=S(=O)(c1ccc(-c2ccc([C@H]3CCC(c4c(F)cccc4F)=N3)cc2)cc1)C(F)(F)F")
3.92

###

Reported melting point values for a set of molecules
recordedEndpoint: melting point (°C)

>>> observedvalue("OC1([C@H]2CCC(c3c(F)cccc3F)=N2)C=CC(c2ccccc2)=CC1 (stereo partly shown) [I-9]")
217
>>> observedvalue("CC(C)(C)[Si](C)(C)Oc1ccc(-c2ccc([C@H]3CCC(c4c(F)cccc4F)=N3)cc2)cc1 [I-8]")
33

###

Assay: log P determination by HPLC (reversed-phase C 18), EEC Directive 79/831 Annex V.A8
Type: physicochemical
Conditions: reversed-phase C18 HPLC column, pH 2.3, HPLC, pH 2.3, 43° C.; read-out: log P (pH 2.3)
Experimental: The log P values given in the tables and Preparation Examples above are determined in accordance with EEC Directive 79/831 Annex V.A8 by HPLC (High Performance Liquid Chromatography) using a reversed-phase column (C 18). Temperature: 43° C. […] Calibration was carried out using unbranched alkan-2-ones (having 3 to 16 carbon atoms) with known log P values (determination of the log P values by the retention times using linear interpolation between two successive […]).
recordedEndpoint: chromatographic logP

>>> observedvalue("Fc1cccc(F)c1C1=N[C@@H](c2ccc(-c3ccc(OC(F)(F)F)cc3)cc2)CC1 [I-3]")
4.08
>>> observedvalue("O=C1CC[C@H](c2ccc(-c3ccc(OC(F)(F)F)cc3)cc2)N1[C@H](CO)c1ccccc1 [X-1]")
3.8
>>> observedvalue("Fc1cccc(F)c1C1=N[C@@H](c2ccc(Br)cc2)CC1 [I-15]")
2.74
>>> observedvalue("C=C(c1ccccc1)N1C(=O)CC[C@@H]1c1ccc(-c2ccc(OC(F)(F)F)cc2)cc1 [XII-1]")
4.35
>>> observedvalue("O=C1CC[C@H](c2ccc(-c3ccc(OC(F)(F)F)cc3)cc2)N1 [VII-1]")
2.95
>>> observedvalue("C=C(c1ccccc1)N1C(=O)CC[C@@H]1c1ccc(Br)cc1 [XII-2]")
3.18
>>> observedvalue("C=CCN1C(=O)CC[C@@H]1c1ccc(-c2ccc(OC(F)(F)F)cc2)cc1 [XVII-1]")
3.88
>>> observedvalue("O=C1CC[C@H](c2ccc(-c3ccc(OC(F)(F)F)cc3)cc2)N1[C@H](CCl)c1ccccc1 [XI-1]")
4.78
>>> observedvalue("O=C1CC[C@H](c2ccc(Br)cc2)N1[C@H](CCl)c1ccccc1 [XI-2]")
3.61
>>> observedvalue("COC(=O)CCC(=O)c1ccc(-c2ccc(OC(F)(F)F)cc2)cc1 [VIII-a-1]")
4.01
>>> observedvalue("O=C1CC[C@H](c2ccc(Br)cc2)N1[C@H](CO)c1ccccc1 [X-2]")
2.58
>>> observedvalue("O=C1CC[C@H](c2ccc(Br)cc2)N1 [VII-2, (5R)-5-(4-Bromophenyl)-2-pyrrolidinone]")
3.54
>>> observedvalue("C=CCNC(=O)CC[C@H](O)c1ccc(-c2ccc(OC(F)(F)F)cc2)cc1 [XVI-1]")
2.99
>>> observedvalue("CC(C)(C)OC(=O)N1C(=O)CC[C@@H]1c1ccc(Br)cc1 [V-2]")
3.04
>>> observedvalue("C=CCNC(=O)CCC(=O)c1ccc(-c2ccc(OC(F)(F)F)cc2)cc1 [XV-1]")
3.34
>>> observedvalue("CC(C)(C)OC(=O)N1C(=O)CC[C@@H]1c1ccc(-c2ccc(C#N)cc2)cc1 [V-4]")
3.02
>>> observedvalue("O=S(=O)(c1ccc(-c2ccc([C@H]3CCC(c4c(F)cccc4F)=N3)cc2)cc1)C(F)(F)F [I-11]")
3.92
>>> observedvalue("N#Cc1ccc(-c2ccc([C@H]3CCC(c4c(F)cccc4F)=N3)cc2)cc1 [I-17]")
2.85
>>> observedvalue("O=C1CC[C@@]2(c3ccc(-c4ccc(OC(F)(F)F)cc4)cc3)OC[C@H](c3ccccc3)N12 [IX-1]")
4.55

###

Assay: log P determination by HPLC (reversed-phase C 18), EEC Directive 79/831 Annex V.A8
Type: physicochemical
Details: HPLC, pH 2.3, 43° C.; read-out: log P (pH 2.3)
Classify by measured chromatographic logP: T if it is equal to or exceeds 4, F if it is smaller.

>>> class("Oc1ccc(-c2ccc([C@H]3CCC(c4c(F)cccc4F)=N3)cc2)cc1 [I-9]")
"F"
>>> class("CC(C)(C)OC(=O)N1C(=O)CC[C@@H]1c1ccc(-c2ccc(OC(F)(F)F)cc2)cc1 [V-1]")
"T"
>>> class("CC(C)(C)OC(=O)N[C@H](CCC(=O)c1c(F)cccc1F)c1ccc(-c2ccc(OC(F)(F)F)cc2)cc1 [IV-1]")
"T"
>>> class("CC(C)(C)OC(=O)N[C@H](CCC(=O)c1c(F)cccc1F)c1ccc(Br)cc1 [IV-2]")
"T"
>>> class("CC(C)(C)[Si](C)(C)Oc1ccc(-c2ccc([C@H]3CCC(c4c(F)cccc4F)=N3)cc2)cc1 [I-8]")
"T"
